experiment: biodistribution in A431-CCK2R/A431-mock xenografted BALB/c nude mice; assay type: in vivo; conditions: female, athymic BALB/c nude, mouse, A431-mock xenograft tumor, iv, 20 pmol, total radioactivity, 20 pmol, 4 h p.i.; read-out: uptake in A431-mock xenografts
Non-standard residues stand in square brackets, D forms with d. Residues, ends and D or L forms follow the SMILES beside them. *: point of attachment. DOTA = O=C(O)CN1CCN(CC(=O)O)CCN(CC(=O)*)CCN(CC(=O)O)CC1; 1Nal = N[C@@H](Cc1cccc2ccccc12)C(=O)O; NMeNle = CCCC[C@H](NC)C(=O)O
Measured tissue uptake at 4 h of individual entries
Provide only the numeric value, understood in %ID/g.

Recorded results for 2 molecules are shown here.
molecule="CCCC[C@@H](C(=O)N[C@@H](CC(=O)O)C(=O)N[C@@H](Cc1cccc2ccccc12)C(N)=O)N(C)C(=O)[C@H](Cc1c[nH]c2ccccc12)NC(=O)CNC(=O)[C@@H]1CCCN1C(=O)[C@H](Cc1ccc(O)cc1)NC(=O)[C@@H](CCC(=O)O)NC(=O)CN1CCN(CC(=O)O)CCN(CC(=O)O)CCN(CC(=O)O)CC1 [[^177Lu]Lu-2, metal not drawn] ({DOTA}-[dE]YPGW[NMeNle]D[1Nal]-NH2)" measure_unit=%ID/g measured=0.25
molecule="CCCC[C@@H](C(=O)N[C@@H](CC(=O)O)C(=O)N[C@@H](Cc1cccc2ccccc12)C(N)=O)N(C)C(=O)[C@H](Cc1c[nH]c2ccccc12)NC(=O)CNC(=O)[C@H](Cc1ccc(O)cc1)NC(=O)[C@@H]1CCCN1C(=O)[C@@H](CCC(=O)O)NC(=O)CN1CCN(CC(=O)O)CCN(CC(=O)O)CCN(CC(=O)O)CC1 [[^177Lu]Lu-1, metal not drawn] ({DOTA}-[dE]PYGW[NMeNle]D[1Nal]-NH2)" measure_unit=%ID/g measured=0.32

Qu. So what does the record say about tissue uptake at 4 h for CCCC[C@@H](C(=O)N[C@@H](CC(=O)O)C(=O)N[C@@H](Cc1cccc2ccccc12)C(N)=O)N(C)C(=O)[C@H](Cc1c[nH]c2ccccc12)NC(=O)[C@@H]1CCCN1C(=O)[C@H](Cc1ccc(O)cc1)NC(=O)[C@H](C)NC(=O)[C@@H](CCC(=O)O)NC(=O)CN1CCN(CC(=O)O)CCN(CC(=O)O)CCN(CC(=O)O)CC1 [[^177Lu]Lu-3, metal not drawn] ({DOTA}-[dE]AYPW[NMeNle]D[1Nal]-NH2) ?
Ans. 0.25

###

experiment: biodistribution in A431-CCK2R/A431-mock xenografted BALB/c nude mice; format: in vivo; details: female, athymic BALB/c nude, mouse, pancreas, iv, 20 pmol, total radioactivity, 20 pmol, 12 h p.i.; read-out: uptake in pancreas
Non-standard residues stand in square brackets, D forms with d. Residues, ends and D or L forms follow the SMILES beside them. *: point of attachment. DOTA = O=C(O)CN1CCN(CC(=O)O)CCN(CC(=O)*)CCN(CC(=O)O)CC1; 1Nal = N[C@@H](Cc1cccc2ccccc12)C(=O)O; NMeNle = CCCC[C@H](NC)C(=O)O
Measured tissue uptake at 12 h of individual entries
Provide only the numeric value, understood in %ID/g.

compound="CCCC[C@@H](C(=O)N[C@@H](CC(=O)O)C(=O)N[C@@H](Cc1cccc2ccccc12)C(N)=O)N(C)C(=O)[C@H](Cc1c[nH]c2ccccc12)NC(=O)CNC(=O)[C@@H]1CCCN1C(=O)[C@H](Cc1ccc(O)cc1)NC(=O)[C@@H](CCC(=O)O)NC(=O)CN1CCN(CC(=O)O)CCN(CC(=O)O)CCN(CC(=O)O)CC1 [[^177Lu]Lu-2, metal not drawn] ({DOTA}-[dE]YPGW[NMeNle]D[1Nal]-NH2)" readout_name="tissue uptake at 12 h" measured=0.82

Consider the record given below.
Qu. So what does the record say about tissue uptake at 12 h for CCCC[C@@H](C(=O)N[C@@H](CC(=O)O)C(=O)N[C@@H](Cc1cccc2ccccc12)C(N)=O)N(C)C(=O)[C@H](Cc1c[nH]c2ccccc12)NC(=O)CNC(=O)[C@H](Cc1ccc(O)cc1)NC(=O)[C@@H]1CCCN1C(=O)[C@@H](CCC(=O)O)NC(=O)CN1CCN(CC(=O)O)CCN(CC(=O)O)CCN(CC(=O)O)CC1 [[^177Lu]Lu-1, metal not drawn] ({DOTA}-[dE]PYGW[NMeNle]D[1Nal]-NH2) ?
Ans. 0.76

Recorded values, source paper PMC7734625.
